Target: human opioid receptor DOR (Homo sapiens)
Sequence (P41143 whole entry): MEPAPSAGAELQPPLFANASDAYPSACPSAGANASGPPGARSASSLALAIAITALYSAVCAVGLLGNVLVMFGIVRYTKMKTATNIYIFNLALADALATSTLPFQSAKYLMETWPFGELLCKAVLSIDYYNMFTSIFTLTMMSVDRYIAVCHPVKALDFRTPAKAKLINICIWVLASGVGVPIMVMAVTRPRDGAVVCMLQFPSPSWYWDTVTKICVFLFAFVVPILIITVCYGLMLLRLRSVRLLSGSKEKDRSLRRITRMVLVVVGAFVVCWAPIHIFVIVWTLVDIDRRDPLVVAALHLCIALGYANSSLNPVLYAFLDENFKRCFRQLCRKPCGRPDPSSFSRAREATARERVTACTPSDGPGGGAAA
Assay: Radioligand binding assay, displacement of [3H]deltorphin-2
Settings: displacement of [3H]deltorphin-2 from membranes of CHO cells transfected with human DOR, 50 mM Tris/HCl pH 7.4, 0.5% BSA, peptidase inhibitors, 2 h at 25 °C, mean ± SEM, n ≥ 3
Where a SMILES comes first, the peptide text is derived from it. Bridges are numbered along the chain shown (N, C = ends). [ ]: non-standard residue; d: D form. Nle = CCCC[C@H](N)C(=O)O
Consider the following molecules and their measured Ki readings.

Molecule	Ki
NC(=O)[C@@H]1CC(=O)NCCCC[C@@H](NC(=O)[C@@H](N)Cc2ccc(O)cc2)C(=O)N[C@@H](Cc2ccccc2)C(=O)N[C@@H](Cc2ccccc2)C(=O)N1 [compound 1, Tyr-c[D-Lys-Phe-Phe-Asp]NH2] (H-Y[dK]FFD-NH2; lactam 2-5)	171 nM
CSCC[C@H](NC(=O)[C@H](CC(C)C)NC(=O)CNC(=O)[C@H](Cc1ccccc1)NC(=O)[C@H](Cc1ccccc1)NC(=O)[C@@H]1CC(=O)NCCCC[C@@H](NC(=O)[C@@H](N)Cc2ccc(O)cc2)C(=O)N[C@@H](Cc2ccccc2)C(=O)N[C@@H](Cc2ccccc2)C(=O)N1)C(N)=O [compound 5] (H-Y[dK]FFDFFGLM-NH2; lactam 2-5)	96.6 nM
CCCC[C@H](NC(=O)[C@H](CC(C)C)NC(=O)[C@@H](Cc1c[nH]c2ccccc12)NC(=O)[C@H](Cc1ccccc1)NC(=O)[C@@H](Cc1c[nH]c2ccccc12)NC(=O)[C@@H]1CC(=O)NCCCC[C@@H](NC(=O)[C@@H](N)Cc2ccc(O)cc2)C(=O)N[C@@H](Cc2ccccc2)C(=O)N[C@@H](Cc2ccccc2)C(=O)N1)C(N)=O [compound 3] (H-Y[dK]FFD[dW]F[dW]L[Nle]-NH2; lactam 2-5)	213 nM

* * *

Consider the following compounds and their measured Ki readings.
Biological target: human opioid receptor MOR (Homo sapiens, UniProt P35372)
Sequence (P35372 whole entry): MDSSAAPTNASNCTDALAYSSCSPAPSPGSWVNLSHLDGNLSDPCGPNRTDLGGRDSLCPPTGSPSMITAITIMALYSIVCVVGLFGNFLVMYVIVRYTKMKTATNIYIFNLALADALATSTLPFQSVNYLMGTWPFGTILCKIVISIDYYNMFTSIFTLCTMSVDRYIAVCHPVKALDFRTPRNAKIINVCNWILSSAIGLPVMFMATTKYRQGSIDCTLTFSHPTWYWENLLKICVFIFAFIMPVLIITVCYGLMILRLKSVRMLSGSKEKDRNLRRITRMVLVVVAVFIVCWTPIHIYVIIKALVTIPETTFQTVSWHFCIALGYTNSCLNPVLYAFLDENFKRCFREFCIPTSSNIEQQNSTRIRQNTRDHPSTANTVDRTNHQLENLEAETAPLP
Where a SMILES comes first, the peptide text is derived from it. Bridges are numbered along the chain shown (N, C = ends). [ ]: non-standard residue; d: D form. Nle = CCCC[C@H](N)C(=O)O

Compound	Unit Tag	Ki
CCCC[C@H](NC(=O)[C@H](CC(C)C)NC(=O)[C@@H](Cc1c[nH]c2ccccc12)NC(=O)[C@H](Cc1ccccc1)NC(=O)[C@@H](Cc1c[nH]c2ccccc12)NC(=O)[C@@H]1CC(=O)NCCCC[C@@H](NC(=O)[C@@H](N)Cc2ccc(O)cc2)C(=O)N[C@@H](Cc2ccccc2)C(=O)N[C@@H](Cc2ccccc2)C(=O)N1)C(N)=O [compound 3] (H-Y[dK]FFD[dW]F[dW]L[Nle]-NH2; lactam 2-5)	nM	28.2
NC(=O)[C@@H]1CC(=O)NCCCC[C@@H](NC(=O)[C@@H](N)Cc2ccc(O)cc2)C(=O)N[C@@H](Cc2ccccc2)C(=O)N[C@@H](Cc2ccccc2)C(=O)N1 [compound 1, Tyr-c[D-Lys-Phe-Phe-Asp]NH2] (H-Y[dK]FFD-NH2; lactam 2-5)	nM	0.35
CSCC[C@H](NC(=O)[C@H](CC(C)C)NC(=O)CNC(=O)[C@H](Cc1ccccc1)NC(=O)[C@H](Cc1ccccc1)NC(=O)[C@H](CCC(N)=O)NC(=O)[C@@H]1CC(=O)NCCCC[C@@H](NC(=O)[C@@H](N)Cc2ccc(O)cc2)C(=O)N[C@@H](Cc2ccccc2)C(=O)N[C@@H](Cc2ccccc2)C(=O)N1)C(N)=O [compound 4] (H-Y[dK]FFDQFFGLM-NH2; lactam 2-5)	nM	7.98
CCCC[C@H](NC(=O)[C@H](CC(C)C)NC(=O)[C@@H](Cc1c[nH]c2ccccc12)NC(=O)[C@H](Cc1ccccc1)NC(=O)[C@@H](Cc1c[nH]c2ccccc12)NC(=O)[C@H](CC(N)=O)NC(=O)[C@@H]1CC(=O)NCCCC[C@@H](NC(=O)[C@@H](N)Cc2ccc(O)cc2)C(=O)N[C@@H](Cc2ccccc2)C(=O)N[C@@H](Cc2ccccc2)C(=O)N1)C(N)=O [compound 2] (H-Y[dK]FFDN[dW]F[dW]L[Nle]-NH2; lactam 2-5)	nM	5.99
CSCC[C@H](NC(=O)[C@H](CC(C)C)NC(=O)CNC(=O)[C@H](Cc1ccccc1)NC(=O)[C@@H]1CC(=O)NCCCC[C@@H](NC(=O)[C@@H](N)Cc2ccc(O)cc2)C(=O)N[C@@H](Cc2ccccc2)C(=O)N[C@@H](Cc2ccccc2)C(=O)N1)C(N)=O [compound 6] (H-Y[dK]FFDFGLM-NH2; lactam 2-5)	nM	2.98
CSCC[C@H](NC(=O)[C@H](CC(C)C)NC(=O)CNC(=O)[C@H](Cc1ccccc1)NC(=O)[C@H](Cc1ccccc1)NC(=O)[C@@H]1CC(=O)NCCCC[C@@H](NC(=O)[C@@H](N)Cc2ccc(O)cc2)C(=O)N[C@@H](Cc2ccccc2)C(=O)N[C@@H](Cc2ccccc2)C(=O)N1)C(N)=O [compound 5] (H-Y[dK]FFDFFGLM-NH2; lactam 2-5)	nM	4.9
CSCC[C@H](NC(=O)[C@H](CC(C)C)NC(=O)CNC(=O)[C@@H]1CC(=O)NCCCC[C@@H](NC(=O)[C@@H](N)Cc2ccc(O)cc2)C(=O)N[C@@H](Cc2ccccc2)C(=O)N[C@@H](Cc2ccccc2)C(=O)N1)C(N)=O [compound 7, Tyr-[D-Lys-Phe-Phe-Asp]-Gly-Leu-Met-NH2] (H-Y[dK]FFDGLM-NH2; lactam 2-5)	nM	1.14
